MEASUREMENT DESCRIPTION: chemical genetic growth profiling, strain panel (AID 1159580);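 also: tested at 20 µM; growth read once vehicle control cultures reached saturation at 30 °C; 1 = growth at the plate median or of vehicle wells; lower values mean less growth of the strain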
EXPERIMENTAL CONTEXT: S. cerevisiae deletion strains, growth OD, locus YIL125W, strain kgd1, hits give low values
The campaign covered roughly 5,500 compounds. About 2,000 (36%) were called active. Another 18% or so got no clear call; they are omitted. The list shows a part of the results.
Would you mind telling me the reported normalized growth of each entry?
Please reply with the value in numeric form only.

(Q) Fill blank: measured normalized growth of the compound "O=C1c2ccc(O)cc2O[C@H](c2cc(O)c(O)c(O)c2)[C@H]1O" is ____.
(A) 1

(Q) Could you share which normalized growth value was measured for "Cc1[nH]c2ccccc2c1CN(C)C" ?
(A) 1.01

(Q) If you can, please state the reported normalized growth value of "Oc1cc(O)c2c(c1)O[C@H](c1ccc(O)c(O)c1)[C@H](O)C2" .
(A) 0.996

(Q) Requested read-out: normalized growth. Entry: "COc1ccc([C@H]2Oc3c(I)c(OC)cc(OC)c3C[C@@H]2O)cc1OC"
(A) 1.03

(Q) What normalized growth value was documented for this compound, "Oc1cc(O)c2c(c1)O[C@H](c1ccc(O)c(O)c1)[C@@H](O)C2" ?
(A) 1

(Q) Form field: reported normalized growth of COc1cc([C@@H]2c3cc4c(cc3C(OC3O[C@@H]5COC(C)O[C@H]5[C@H](O)[C@H]3O)C3COC(=O)[C@@H]32)OCO4)cc(OC)c1O (some centres not stated)
(A) 0.997

(Q) Look up normalized growth: "COc1cc2c(cc1OC)C(=O)c1ccc(OC)c(OC)c1OCC(=O)C2"
(A) 1.01

* * *

MEASUREMENT DESCRIPTION: chemical genetic growth profiling, strain panel (AID 1159580);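 also: tested at 20 µM; growth read once vehicle control cultures reached saturation at 30 °C; 1 = growth at the plate median or of vehicle wells; lower values mean less growth of the strain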
EXPERIMENTAL CONTEXT: S. cerevisiae deletion strains, growth OD, locus YJL129C, strain trk1, hits give low values
About 2,000 (36%) of roughly 5,500 compounds were called active. Inconclusive results (about 18%) are left out. The list shows a part of the results.
For each record, write down the corresponding normalized growth.
Could you keep your reply to the number by itself?

(Q) I have this molecule here, "COc1ccc(-c2coc3cc(O)ccc3c2=O)c(O)c1O" , and I need its recorded normalized growth.
(A) 1.03

(Q) Name the reported normalized growth value associated with the molecule C[C@]12CCC(=O)C=C1C=CC1C2CC[C@@]2(C)C1CC[C@@]21CCC(=O)O1 (stereo partly drawn)
(A) 0.95

(Q) Return reported normalized growth; argument: CC(=O)S[C@@H]1CC2=CC(=O)CC[C@]2(C)[C@H]2CC[C@@]3(C)[C@@H](CC[C@@]34CCC(=O)O4)C12 (stereo partly drawn)
(A) 1.02

(Q) Quick one: normalized growth for COc1ccc2c(c1)OC1(O)COc3cc(OC)c(OC)cc3C1=C2 (stereo not drawn) ?
(A) 0.979

(Q) Data request, read-out normalized growth, for CCCCC/C=C/CCC(=O)N[C@H]1[C@H](Oc2c3cc4cc2Oc2ccc(cc2Cl)[C@@H](O[C@@H]2O[C@H](CO)[C@@H](O)[C@H](O)[C@H]2NC(C)=O)[C@@H]2NC(=O)[C@H](NC(=O)[C@@H]4NC(=O)[C@H]4NC(=O)C(Cc5ccc(c(Cl)c5)O3)NC(=O)[C@H](N)c3ccc(O)c(c3)Oc3cc(O)cc4c3)c3ccc(O)c(c3)-c3c(OC4O[C@H](CO)[C@@H](O)[C@H](O)[C@@H]4O)cc(O)cc3[C@@H](C(=O)O)NC2=O)O[C@H](CO)[C@@H](O)[C@@H]1O (stereo partly drawn)
(A) 1

(Q) Would you kindly share the measured normalized growth for "CCCCCCCCC(=O)NCc1ccc(O)c(OC)c1" ?
(A) 0.977

(Q) Endpoint output: normalized growth of "N[C@@H](Cc1ccc(N(CCCl)CCCl)cc1)C(=O)O" . Value?
(A) 0.969

(Q) Please look up its normalized growth: "O=C1C(Cl)=C(Cl)C(=O)C(Cl)=C1Cl"
(A) 1

(Q) # input molecule: "C#CCN(C)Cc1ccccc1" ; wanted: its normalized growth
(A) 1.03

(Q) // lookup normalized growth for CC1CCc2cc(F)cc3c(=O)c(C(=O)O)cn1c23 (stereo not drawn)
(A) 1

(Q) Which normalized growth is listed for "Oc1ccc2c(c1)O[C@H](c1ccc(O)c(O)c1)[C@@H](O)C2" ?
(A) 1.04

(Q) Any idea what its normalized growth is? The molecule is "CCn1cc(C(=O)O)c(=O)c2cc(F)c(N3CCNCC3)nc21"
(A) 0.943

(Q) Consider the molecule "C[C@H]1COc2c(N3CCN(C)CC3)c(F)cc3c(=O)c(C(=O)O)cn1c23" and give its measured normalized growth.
(A) 1.04

(Q) Item under review: N=c1ccn2c(n1)OC1C(O)C(CO)OC12 (stereo not drawn) . Reported normalized growth?
(A) 1.02

(Q) Give its normalized growth value. Item: "CC[C@@]1(O)C[C@H](O[C@H]2C[C@H](N(C)C)[C@H](O)[C@H](C)O2)c2c(cc3c(c2O)C(=O)c2c(O)cccc2C3=O)[C@H]1C(=O)OC"
(A) 1.08

(Q) Fill blank: measured normalized growth of the molecule "O=S(=O)(O)c1cc(N=C=S)ccc1/C=C/c1ccc(N=C=S)cc1S(=O)(=O)O" is ____.
(A) 1.06

(Q) What value of normalized growth has been reported for the following molecule? CC1COc2c(N3CCN(C)CC3)c(F)cc3c(=O)c(C(=O)O)cn1c23 (stereo not drawn)
(A) 0.987

(Q) Give its normalized growth value. Item: COC(=O)C1=COC(OC2OC(CO)C(O)C(O)C2O)C2C(C)CC(=O)C12 (stereo not drawn)
(A) 1.06

(Q) Request the reported normalized growth associated with CN1C2CCC1CC(OC(c1ccccc1)c1ccccc1)C2 (stereo not drawn)
(A) 0.975

(Q) Give its normalized growth value. Item: CCn1cc(C(=O)O)c(=O)c2cc(F)c(N3CCNC(C)C3)c(F)c21 (stereo not drawn)
(A) 0.931

(Q) # get_value(readout='normalized growth', item= CNCCC(Oc1ccc(C(F)(F)F)cc1)c1ccccc1 (stereo not drawn) )
(A) 1.01

(Q) normalized growth for "COc1ccc(CN(CCN(C)C)c2ccccn2)cc1" ?
(A) 1.03

(Q) // lookup normalized growth for "O=c1c(-c2ccc(O)cc2)coc2cc(O)ccc12"
(A) 0.969

(Q) # lookup: normalized growth of "O=C(O)c1cc2cc(F)ccc2[nH]1"
(A) 0.979

(Q) Item under review: CCN1CCCC(OC(=O)C(c2ccccc2)c2ccccc2)C1 (stereo not drawn) . Reported normalized growth?
(A) 0.964

(Q) Which normalized growth is listed for "COc1ccc2c(c1)OC/C(=C\c1ccc(OC)c(O)c1)C2=O" ?
(A) 0.776

(Q) Recorded normalized growth of "O=C(O)CCCc1ccccc1" , please.
(A) 0.983

(Q) // normalized growth lookup, key: "CN1CC(=O)N=C1N"
(A) 1.04

* * *

MEASUREMENT DESCRIPTION: chemical genetic growth profiling, strain panel (AID 1159580);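 also: tested at 20 µM; growth read once vehicle control cultures reached saturation at 30 °C; 1 = growth at the plate median or of vehicle wells; lower values mean less growth of the strain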
EXPERIMENTAL CONTEXT: S. cerevisiae deletion strains, growth OD, locus YML032C, strain rad52
In all, about 5,500 compounds went through this assay and about 2,000 (36%) were called active. Another 18% or so got no clear call; they are omitted. No stated cut-off is given here; in the data, active means normalized growth mostly below about 0.91 (no sharp cut-off); inconclusive means no clear call, values can overlap the other calls; inactive means mostly above about 0.92. This is one part of the list.
Outcomes you can answer with include only these: Y = active, N = inactive

(Q) Can you look up the reported call for "CN1CC(=O)N=C1N" for me?
(A) N

(Q) So what was the verdict on C/C=C(\C)C(=O)O[C@H]1C[C@@H](OC(C)=O)[C@@]2(C(=O)OC)CO[C@@H]3C2[C@]12CO[C@](O)(C(=O)OC)[C@H]2[C@](C)(C12O[C@@]1(C)[C@H]1C[C@@H]2OC2OC=C[C@@]21O)[C@@H]3O (stereo not given in full) in this test?
(A) N

(Q) Any idea what this test logged for COc1ccc(OC)c(C(O)CNC(=O)CN)c1 (stereo not given) ?
(A) N

(Q) Could you please tell me the result logged for "C[C@H]1COc2c(N3CCN(C)CC3)c(F)cc3c(=O)c(C(=O)O)cn1c23" in this assay?
(A) N

(Q) For "CNC(=O)O/N=C(\C)SC" , which call appears in the assay record?
(A) N

(Q) Each molecule tested received a call. Report the one for "CC[C@@]1(O)C[C@H](O[C@H]2C[C@H](N(C)C)[C@H](O)[C@H](C)O2)c2c(cc3c(c2O)C(=O)c2c(O)ccc(O)c2C3=O)[C@H]1C(=O)OC" .
(A) Y

(Q) What classification did CC(=O)O[C@H]1C[C@@H](OC(C)=O)C(C)(C)C2CC(=O)[C@]3(C)C(CC[C@@]4(C)[C@H](C(=O)O)OC(=O)C5OC543)[C@]21C (stereo not given in full) end up with in this test?
(A) N

(Q) Short answer needed: outcome of this test for "COc1ccc(C(=O)O)cc1OC" ?
(A) N

(Q) Outcome? "CC(=O)Oc1cc(OC(C)=O)c2c(c1)O[C@H](c1ccc(OC(C)=O)c(OC(C)=O)c1)[C@@H](OC(C)=O)C2"
(A) N

(Q) Call for entry CC1(C)CCC[C@@]2(C)C1[C@@H](O)C[C@]1(C)C2CC[C@@H]2[C@@]3(C)CC[C@H](C(C)(C)O)[C@@H]3CC[C@@]21C (stereo not given in full) :
(A) N

(Q) Which outcome did this test record for the molecule "NS(=O)(=O)c1cc2c(cc1Cl)NC=NS2(=O)=O" ?
(A) N

(Q) Each molecule tested received a call. Report the one for "CCn1cc(C(=O)O)c(=O)c2cc(F)c(N3CCNCC3)nc21" .
(A) N

(Q) Recorded test outcome, item "O=C(O[C@@H]1Cc2c(O)cc(O)cc2O[C@@H]1c1ccc(O)c(O)c1)c1cc(O)c(O)c(O)c1"
(A) N

(Q) Name the outcome recorded for CCN1CCCC(OC(=O)C(c2ccccc2)c2ccccc2)C1 (stereo not given) in the assay.
(A) N

(Q) Kindly provide the recorded test outcome for the following molecule: "COc1cc(OC)c2c(c1)O[C@H](c1cc(OC)c(OC)c(OC)c1)[C@H](OC(=O)c1cc(OC)c(OC)c(OC)c1)C2"
(A) N
